meta.source: patent US20230382925A1

- Measured target: UniProtKB P13569
- Sequence (P13569 with tags, fused parts or gaps DEL508-508): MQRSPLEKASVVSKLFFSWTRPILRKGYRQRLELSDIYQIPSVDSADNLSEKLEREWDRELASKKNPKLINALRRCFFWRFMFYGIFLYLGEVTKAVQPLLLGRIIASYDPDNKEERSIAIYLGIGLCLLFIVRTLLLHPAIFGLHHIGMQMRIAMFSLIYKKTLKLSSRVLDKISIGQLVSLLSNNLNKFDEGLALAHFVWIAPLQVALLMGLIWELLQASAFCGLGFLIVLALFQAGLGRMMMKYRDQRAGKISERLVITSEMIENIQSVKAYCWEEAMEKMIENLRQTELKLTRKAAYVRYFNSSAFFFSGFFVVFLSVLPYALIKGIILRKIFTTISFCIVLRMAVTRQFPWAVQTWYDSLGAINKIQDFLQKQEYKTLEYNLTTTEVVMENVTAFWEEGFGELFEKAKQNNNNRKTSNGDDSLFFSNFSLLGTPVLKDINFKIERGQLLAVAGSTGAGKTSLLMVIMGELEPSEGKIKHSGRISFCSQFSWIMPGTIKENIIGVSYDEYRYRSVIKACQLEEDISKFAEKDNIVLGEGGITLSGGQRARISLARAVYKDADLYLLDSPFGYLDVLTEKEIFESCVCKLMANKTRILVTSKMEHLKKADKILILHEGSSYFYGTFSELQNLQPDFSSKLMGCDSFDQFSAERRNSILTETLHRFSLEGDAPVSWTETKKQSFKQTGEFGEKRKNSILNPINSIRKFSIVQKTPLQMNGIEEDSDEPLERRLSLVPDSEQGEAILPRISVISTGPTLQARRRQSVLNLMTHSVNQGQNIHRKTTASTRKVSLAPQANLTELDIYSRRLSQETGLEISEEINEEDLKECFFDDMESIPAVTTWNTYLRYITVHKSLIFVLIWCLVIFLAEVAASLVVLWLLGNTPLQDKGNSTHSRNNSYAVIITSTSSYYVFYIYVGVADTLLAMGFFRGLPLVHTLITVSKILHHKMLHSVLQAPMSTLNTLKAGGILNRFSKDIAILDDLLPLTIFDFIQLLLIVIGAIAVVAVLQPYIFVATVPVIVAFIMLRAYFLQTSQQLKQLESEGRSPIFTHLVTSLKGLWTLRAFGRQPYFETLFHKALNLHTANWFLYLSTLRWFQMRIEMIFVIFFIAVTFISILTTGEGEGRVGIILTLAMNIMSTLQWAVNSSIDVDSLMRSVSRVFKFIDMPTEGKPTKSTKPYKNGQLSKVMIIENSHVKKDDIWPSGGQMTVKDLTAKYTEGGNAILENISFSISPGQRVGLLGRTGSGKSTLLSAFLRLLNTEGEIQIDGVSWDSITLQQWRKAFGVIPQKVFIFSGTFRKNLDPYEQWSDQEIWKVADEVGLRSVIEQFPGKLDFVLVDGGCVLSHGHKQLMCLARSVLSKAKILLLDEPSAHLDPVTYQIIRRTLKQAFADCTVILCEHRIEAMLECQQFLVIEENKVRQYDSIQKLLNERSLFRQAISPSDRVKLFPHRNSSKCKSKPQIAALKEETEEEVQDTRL
- Assay procedure: Membrane Potential Dye, Enteroid Assay A
- Type: cell-based
Reported property: Ent. A Max Activity (%)

{"Molecule": "Cc1cccc(C)c1-c1cc2nc(n1)NS(=O)(=O)c1cccc(c1)C(=O)N(C1CCOCC1)CCO2", "Result": "+++ (+++ is >60%)"}
{"Molecule": "Cc1cccc(C)c1-c1cc2nc(n1)NS(=O)(=O)c1cccc(c1)C(=O)N([C@H]1C[C@]3(CCN(C(C)C)C3)C1)[C@H](CC(C)C)CO2 (single isomer, unassigned) [Compound 33]", "Result": "+++ (+++ is >60%)"}
{"Molecule": "COC(=O)N1CCCCC12CC(N1C(=O)c3cccc(c3)S(=O)(=O)Nc3nc(cc(-c4c(C)cccc4C)n3)OC[C@H]1CC(C)C)C2 (stereo partly drawn)", "Result": "+++ (+++ is >60%)"}
{"Molecule": "Cc1cccc(C)c1-c1cc2nc(n1)NS(=O)(=O)c1cccc(c1)C(=O)N(C1CC(C)(C)C1)[C@H](CC(C)C)CO2", "Result": "+++ (+++ is >60%)"}
